- Procedure text: Determination of the log P values by HPLC (formic acid method)
- Assay type: physicochemical
- Condition context: reversed-phase column (C 18), acidic range (pH 3.4), 55° C.
What log P was measured for each of the following?
Numbers only.

{"Record smiles": "O=C(Nc1nn(-c2ncc(F)cc2F)cc1Br)c1ccccc1C(F)(F)F", "log P": 2.61}

# batch: return log P for each of the 2 compounds below
1. N#CCN(C(=O)c1ccccc1C(F)(F)F)c1ccn(-c2ncc(F)cc2F)n1
2. Cc1occc1C(=O)Nc1ccn(-c2ccccc2Cl)n1

(A)
[2.80, 2.71]

----------
- Procedure text: Determination of the log P values by HPLC (formic acid method)
- Format: physicochemical
- Condition context: reversed-phase column (C 18), acidic range (pH 3.4), 55° C.
What log P was measured for each of the following?

{"Record smiles": "Cn1nc(C(F)(F)F)c(C(=O)Nc2ccn(-c3ncc(F)cc3F)n2)c1C(F)(F)F", "log P": 2.79}
{"Record smiles": "CCc1nccnc1C(=O)Nc1ccn(-c2c(F)cccc2F)n1", "log P": 2.65}
{"Record smiles": "Cc1nn(C)c(C(=O)Nc2ccn(-c3c(F)cccc3F)n2)c1Br", "log P": 2.76}
{"Record smiles": "CS(=O)(=O)c1ccccc1C(=O)Nc1ccn(-c2ccccc2Cl)n1", "log P": 2.17}
{"Record smiles": "O=C(Nc1ccn(-c2ccccc2[N+](=O)[O-])n1)c1ccccc1C(F)(F)F", "log P": 2.63}
{"Record smiles": "N#Cc1ccccc1-n1ccc(NC(=O)c2ccccc2Cl)n1", "log P": 2.38}
{"Record smiles": "O=C(Nc1ccn(-c2ncccc2F)n1)c1ccccc1I", "log P": 2.22}

// next item, log P requested
(Q) Using the record for "CC1=C(C(=O)Nc2ccn(-c3ncc(F)cc3F)n2)OCCO1" , report its log P.
(A) 2.16

----------
- Procedure text: Determination of the log P values by HPLC (formic acid method)
- Format: physicochemical
- Condition context: reversed-phase column (C 18), acidic range (pH 3.4), 55° C.
Value type: log P
One number for each entry.

# batch: return log P for each of the 3 molecules below
1. O=C(Nc1ccn(-c2ccccc2Br)n1)c1ccccc1I
2. N#Cc1cncnc1-n1ccc(NC(=O)c2c(F)cccc2F)n1
3. O=C(Nc1ccn(-c2ccccc2[N+](=O)[O-])n1)c1ccccc1Br

(A)
1: 3.07; 2: 2.03; 3: 2.50

----------
- Procedure text: Determination of the log P values by HPLC (formic acid method)
- Assay type: physicochemical
- Condition context: reversed-phase column (C 18), acidic range (pH 3.4), 55° C.
Value type: log P
One number for each entry.

{"Molecule": "O=C(Nc1ccn(-c2ncc(F)cn2)n1)c1cccnc1C(F)(F)F [Compound I-1-601]", "log P": 1.73}
{"Molecule": "O=C(Nc1ccn(-c2ncc(Cl)cc2F)n1)c1ccccc1I [Compound I-1-593]", "log P": 2.89}
{"Molecule": "Cn1cnnc1C(=O)Nc1ccn(-c2c(F)cccc2F)n1 [Compound I-1-328]", "log P": 1.51}
{"Molecule": "O=C(Nc1ccn(-c2ncc(F)cc2F)n1)c1cccnc1OC(F)(F)F [Compound I-1-464]", "log P": 2.53}

// next item, log P requested
(Q) Using the record for O=C(c1ccccc1C(F)(F)F)N(CC(F)F)c1ccn(-c2c(F)cccc2F)n1 [Compound I-1-264] , report its log P.
(A) 3.38
